Where do the numbers come from? From patent US20240301052A1.

Target: T1, human SLC34A2 (human, UniProt O95436 1-690)
T1 construct: whole, on cells; also called human solute carrier 34 A2; NaPi2b
T1 sequence (looked up): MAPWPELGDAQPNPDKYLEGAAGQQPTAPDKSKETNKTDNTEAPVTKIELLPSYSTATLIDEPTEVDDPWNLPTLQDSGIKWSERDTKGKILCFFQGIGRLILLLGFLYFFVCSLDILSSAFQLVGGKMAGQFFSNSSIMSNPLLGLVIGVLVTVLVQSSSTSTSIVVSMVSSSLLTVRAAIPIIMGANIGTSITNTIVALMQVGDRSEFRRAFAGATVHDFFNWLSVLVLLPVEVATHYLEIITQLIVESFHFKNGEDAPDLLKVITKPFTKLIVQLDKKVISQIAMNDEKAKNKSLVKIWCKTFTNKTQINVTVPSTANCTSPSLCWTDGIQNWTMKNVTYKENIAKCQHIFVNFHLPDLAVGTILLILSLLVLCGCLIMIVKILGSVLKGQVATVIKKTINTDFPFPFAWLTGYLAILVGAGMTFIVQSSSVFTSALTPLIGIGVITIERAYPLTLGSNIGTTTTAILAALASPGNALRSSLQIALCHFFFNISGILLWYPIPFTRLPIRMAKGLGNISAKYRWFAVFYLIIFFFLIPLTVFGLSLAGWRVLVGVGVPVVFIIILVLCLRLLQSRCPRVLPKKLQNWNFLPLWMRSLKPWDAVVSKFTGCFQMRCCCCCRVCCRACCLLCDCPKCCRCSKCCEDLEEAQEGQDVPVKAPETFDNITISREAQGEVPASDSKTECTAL
Test: FACS, HEK293/human SLC34A2 cells
Method: Briefly, OVCAR3 cells or HEK293 cells expressing human SLC34A2 were incubated with chimeric antibodies (from 200 nM, 4 folds dilution, 8 points). After incubation at 4° C. for 60 minutes, the cells were washed with FACS buffer twice, then stained with fluorescent conjugated secondary antibody at 4° C. for 30 minutes. After that the cells were washed twice and analyzed by flow cytometry.
Assay Metric: pEC50
# pEC50: negative log10 of molar concentration; output just the value

Reference set, count: 9
xi20H2F1 hIgG1 (antibody, V domains shown, chimeric, hIgG1) VH: EVKLVESGGNLVKPGGSLKLSCAASGFTFSSYAMSWVRQTPEKRLEWVASISNGGTTYYPDSVKGRFTISRDVARNILYLQMTSLRSEDTAMYYCARTHYRDFVYWGQGTLVTVSA VL: EIVLTQAAFSNPVTLGTSASISCRSSKSLLHSNGITYLYWYLQKPGQSPQLLIYQMSNLASGVPDRFSCSGSGTDFTLRISRVEAEDVGVYYCAQNLEFPWTFGGGTKLEIK; 8.88
xi67C9G11 hIgG1 (antibody, V domains shown, chimeric, hIgG1) VH: DVKLVESGGGLVKLGGSLKLSCAASGFTFSSYFMSWIRQTPEKRVDLVAVINSNGGSTYSPDTVKGRFTISRDNAKNTLYLQMTSLKSEDTALYYCARHFYSYDGAWFPYWGQGTLVTVSA VL: DIVMTQSHKFMSTLVGDRVSITCKASQDVSTSVAWYQQKPGQSPKLLIYWASTRHTGVPDRFTGSGSGTDFTLTISSVQAEDLALYYCQQHHSTPITFGVGTKLELK; 8.55
xi16E5D10 hIgG1 (antibody, V domains shown, chimeric, hIgG1) VH: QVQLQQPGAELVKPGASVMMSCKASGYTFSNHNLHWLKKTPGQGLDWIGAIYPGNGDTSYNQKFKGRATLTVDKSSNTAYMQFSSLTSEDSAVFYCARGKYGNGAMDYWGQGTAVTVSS VL: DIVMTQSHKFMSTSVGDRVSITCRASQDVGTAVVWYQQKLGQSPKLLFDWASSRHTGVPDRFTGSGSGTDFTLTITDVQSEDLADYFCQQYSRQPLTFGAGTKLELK; 8.64
xi62C10B3D2 hIgG1 (antibody, V domains shown, chimeric, hIgG1) VH: QVHQQQSGPELVKPGASVRISCKASGYTFTSYYIHWVKQRPGQGLEWIGCIYPGNLFTKYNEKFKDKATLTADTSSTTAYMHLSSLTSEDSAVYFCARFLNWNAWYFDVWGAGTTVSVSS VL: DVLMTQTPLSLPVSLGDQASISCRSSQSIEHSNGNTNLEWYLQKPGQSPRLLIYKVSNRFSGVPDRFSGSGSGTDFTLKITGVEAEDLGVYYCFQGSHFPWTFGGGTKLEIK; 6.42
xi7G10E11 hIgG1 (antibody, V domains shown, chimeric, hIgG1) VH: DVKLVESGGGLIKLGGSLKLSCAASGFTFSGYYMSWFRQTPEKRLELVAVINSNGGSTYYAVTVKGRFTISRDNAKNTLYLQMSSLKSEDTALYYCARHEGSQAWFAHWGQGTLVTVSA VL: DIVMTQSHKFMSTSVGDRVSITCKASQDVTTAVAWYQQKPGQSPKLLIYWASTRHTGVPDRFTGSGSGTDYTLTISSVQAEDLALYYCQQHHSTPLTFGAGTKLELK; 8.76
xi84F2D10 hIgG1 (antibody, V domains shown, chimeric, hIgG1) VH: QVQLQQPGAVLVKPGASVKMSCKASGYTFTSYNLHWVKQTPGQGLEWIGAIYPGNGDTSYIQKFKGKATLTADKSSSTAYMQLSSLTSEDSAVYYCARGKYGNYEGFAYWGQGTLVTVSA VL: DILLTQSPAILSVSPGERVSISCRASQSIGTSIYWYQQRRNGSPRLLIKFASESISGIPSRFSGSGSGTDFTLSINSVESEDIADYYCQQNNRWPFTFGSGTKLEIK; 8.86
xi91C9F1 hIgG1 (antibody, V domains shown, chimeric, hIgG1) VH: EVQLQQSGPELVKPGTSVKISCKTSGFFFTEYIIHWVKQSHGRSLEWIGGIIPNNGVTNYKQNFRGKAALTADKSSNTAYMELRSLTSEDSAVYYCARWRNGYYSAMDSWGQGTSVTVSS VL: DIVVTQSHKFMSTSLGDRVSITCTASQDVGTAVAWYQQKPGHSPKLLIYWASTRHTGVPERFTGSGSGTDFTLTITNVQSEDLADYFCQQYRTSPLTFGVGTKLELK; 8.97
xi78D1B10 hIgG1 (antibody, V domains shown, chimeric, hIgG1) VH: QVQLQQPGADLVKPGASVKLSCKASGFTFTSYIIHWVKQTPGQGLEWIGAIYPGNGDTSYIQKFKGRATLTADKSSTTAYMQLGGLTSEDSAVYYCARGTYGSSAWFVYWGQGTLVTVSA VL: DIVLTQSPATLSVTPGDSVSLSCRASQSISNNLYWYQQKSHESPRLLIKYASQSISGIPSRFRGSGSGTDFTLSINSVETEDFGMYFCQQSNSWPLTFGAGTKLELK; 8.90
xi30H9B8F9 hIgG1 (antibody, V domains shown, chimeric, hIgG1) VH: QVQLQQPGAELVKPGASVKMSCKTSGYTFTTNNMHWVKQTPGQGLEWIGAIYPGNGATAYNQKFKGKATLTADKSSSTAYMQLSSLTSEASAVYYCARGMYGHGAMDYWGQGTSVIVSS VL: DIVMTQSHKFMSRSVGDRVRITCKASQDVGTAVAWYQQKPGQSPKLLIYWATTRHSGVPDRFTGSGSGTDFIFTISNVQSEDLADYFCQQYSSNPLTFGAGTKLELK; 9.02

Supply recorded pEC50 for xi69B11D8 hIgG1 (antibody, V domains shown, chimeric, hIgG1) VH: EVQLQQSGPELVKPGAAVKISCKTSGYTFTDYTMHWVRQSHGKSLEWIGGIHPNNGGTGYNQKLRGKATLTVDKSSSTAYMELRSLTSDDSAVYYCARGRESDGWFTYWGQGTLVTFSA VL: DVHMTQTTSSLSASLGDRVTITCSASQGIGNSLNWYQQQPDGTVKLLIYYTSRLHSGVPSRFSGSGSGTDYSLTISNLEPEDLATYYCQQYSRFPPTFGGGTKLEIK here.
8.92
